Reported Reactivity (%) values follow for various binders
# Study Target: #231: CAR with VL-L1-VH scFv, Human 3rd-generation
# Assay Protocol: flow cytometry on CAR-T cells; PE-labeled secondary antibody; PE-positive cells / total cells
Answer format: numeric, % implied, no suffix.

Example entries and their recorded answers appear below.
{"Binder": "3E7-C1 (antibody, V domains shown) VH: QVQMKESGPGLVQPSETLSLTCTVSGFSLTSYGVSWVRQPSGKGPEWMGRLWNDGDTAYNSALKSRLSISRDTSKNQVFLKMNSLQTDDTGTYYCTTMNGYKDYWGQGVMVTVSS VL: TSYELIQPPSASVTLGNTVSLTCVGDELPKRYAYWYQQKPDQSIVRVIYEDSKRPSGISDRFSGSSSGTTATLTIRDAQAEDEADYYCHSTYSDDKLRIFGGGTKLTVLG", "Reactivity (%)": 69.6}
{"Binder": "4B9-B11 (antibody, V domains shown) VH: QMQLKESGPGLVQPSETLSLTCTVSGFSLTSYSVSWVRQPSGKGPEWMGRMYYDGDTAYNSALKSRLSISRDTSKNQVFLKMNSLQTDDTGTYYCTRSIGAEDYWGQGVMVTVSS VL: TSYELIQPPSASVTLGNTVSLTCVGDELPKRYAYWYQQKPDQSIVRVIYEDSKRPSGISDRFSGSSSGTTATLTIRDAQNEDEADYYCHSTYSDDKLRIFGGGTKLTVLG", "Reactivity (%)": 74.6}

With those in mind, consider the next binder.
Q. Specify measured Reactivity (%) for 3A4-A10-7 (antibody, V domains shown) VH: QVQLQQSGAALVKPGASVKMSCKASGYTFTDCWVSWVKQSHGKSLEWIGEIHPNSGTTNFNEKFKGKATLTVDKSTSTAYMELSRLTSEDSAIYYCTRAYGGYPFDYWGQGVMVTVSS VL: ADLVLTQPKSVSTSLESTVKLSCKLNSGNIGRYYMHWYQQHEGRSPTNMIYRDDKRPDGVPDRFSGSIDSSSNSAFLTINNVQTEDEAIYFCHSYDSSINIFGGGTKLTVLG .
A. 23.9

Recorded values, source patent US20240400718A1.
